The measured values listed here are drawn from the Human Domainome abundance scans (Beltran et al. 2025).

B1: Syntaxin-binding protein 4, residues 493 to 538; numbered along this chain, Q6ZWJ1 (parent)
chain: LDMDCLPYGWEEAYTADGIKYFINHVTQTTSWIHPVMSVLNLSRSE

variants of: B1; assay: abundance fitness (aPCA) (normalised: wild type 0, dead -1); higher = more abundant; growth selection in yeast, the domain comes from the species named; conditions: Homo sapiens
ATTRIBUTE_MEASURED: abundance fitness

[
  {
    "MUTATION_LIST": "N24Y",
    "RESULT": -0.638
  },
  {
    "MUTATION_LIST": "S38V",
    "RESULT": -0.502
  },
  {
    "MUTATION_LIST": "D2T",
    "RESULT": -0.334
  },
  {
    "MUTATION_LIST": "H25D",
    "RESULT": -1.1
  },
  {
    "MUTATION_LIST": "Y21S",
    "RESULT": -0.778
  }
]
